Value source: patent US6878364B2

assay: Cytotoxicity on uninfected woodchuck primary hepatocytes (CytoTox96); assay type: cell-based
property_measured: CC50 (µM)
Return type: number; implicit unit µM.

Input "NC(=O)c1ncn([C@@H]2O[C@H](CO)[C@@H](O)[C@H]2O)n1" . Output CC50: 44.8

* * *

assay: in vitro; type: cell-based; conditions: bovine
property_measured: CC50 at 3 days
Number first, unit second.

Input NC(=O)c1ncn([C@@H]2O[C@H](CO)[C@@H](O)[C@H]2O)n1 [Ribavirin] . Output CC50 at 3 days: 4.3 µM

* * *

assay: Cytotoxicity on uninfected WCH-8 cells (methylene blue assay); assay type: cell-based; details: woodchuck, uninfected woodchuck hepatic WCH-8 cells, three days of treatment
property_measured: CC50 at 3 days (µM)
Return type: number; implicit unit µM.

Input NC(=O)c1ncn([C@@H]2O[C@H](CO)[C@@H](O)[C@H]2O)n1 [Ribavirin] . Output CC50 at 3 days: 2.9
